- ASSAY TARGET: human OCT2 (Homo sapiens, UniProt O15244)
- Sequence (O15244 whole entry): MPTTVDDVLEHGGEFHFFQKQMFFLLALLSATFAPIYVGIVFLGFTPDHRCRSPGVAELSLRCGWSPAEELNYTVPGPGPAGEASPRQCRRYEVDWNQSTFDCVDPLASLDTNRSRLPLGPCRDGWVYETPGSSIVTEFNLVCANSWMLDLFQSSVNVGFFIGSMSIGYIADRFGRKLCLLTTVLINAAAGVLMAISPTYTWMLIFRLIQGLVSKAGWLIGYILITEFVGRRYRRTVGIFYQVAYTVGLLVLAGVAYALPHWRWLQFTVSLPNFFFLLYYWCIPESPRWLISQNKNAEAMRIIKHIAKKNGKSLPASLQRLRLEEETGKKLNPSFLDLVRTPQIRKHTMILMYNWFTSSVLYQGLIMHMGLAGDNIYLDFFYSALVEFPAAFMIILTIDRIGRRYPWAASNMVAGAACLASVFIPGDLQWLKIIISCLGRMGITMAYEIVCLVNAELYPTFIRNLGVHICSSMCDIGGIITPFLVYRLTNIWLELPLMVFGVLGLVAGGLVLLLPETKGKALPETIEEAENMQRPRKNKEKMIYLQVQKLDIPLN
- EXPERIMENTAL DETAILS: Uptake trans-stimulation assay of OCT2-mediated DiASP uptake in HEK-OCT2 cells
- Type: cell-based
- Set-up: host or cells: HEK293 (HEK-OCT2)
- TEST SETTINGS: HEK-OCT2 cells preloaded 30 min 37 °C, washed, then 10 µM DiASP 5 min
MEASURED ATTRIBUTE: Lowest trans-inhibiting concentration towards DiASP uptake (mM)
Your answer is read as mM, so omit the unit and give the number.

MOLECULE | DATA VALUE
NCCc1ccc(O)c(O)c1 | 10
NCCc1c[nH]c2ccc(O)cc12 | 1
CNC[C@H](O)c1ccc(O)c(O)c1 [Epinephrine, epinephrine] | 1

Query :: Entry NCCCCN=C(N)N has what Lowest trans-inhibiting concentration towards DiASP uptake?
Result :: 10

Query :: Entry Cc1ncc(C[n+]2csc(CCO)c2C)c(N)n1 has what Lowest trans-inhibiting concentration towards DiASP uptake?
Result :: 10

Query :: Entry COCCn1c2c([n+](Cc3cnccn3)c1C)C(=O)c1ccccc1C2=O has what Lowest trans-inhibiting concentration towards DiASP uptake?
Result :: 0.001

Query :: Entry CN/C(=N/CCSCc1nc[nH]c1C)NC#N has what Lowest trans-inhibiting concentration towards DiASP uptake?
Result :: 10
